Kindly state %Inh for each of the entries shown.
Test system: ERK5
Construct: gene MAPK7
Condition Parameters: concentration: 1 μM,replicates: in singlicate; n = 1;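 also: KINOMEscan kinase panel screen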
Give just the numeric value; % need not be written.

INPUT: Indicate its recorded %Inh; the molecule in question is Cc1ccc(Nc2ccnc(Nc3ccc4c(c3)CS(=O)(=O)C4)n2)cc1O.Cl [GW579362]
OUTPUT: 0

INPUT: Indicate its recorded %Inh; the molecule in question is COc1cc2ncn(-c3cc(OCC4CCCCC4)c(C(N)=O)s3)c2cc1OC [GSK204559]
OUTPUT: 0

INPUT: Indicate its recorded %Inh; the molecule in question is CCn1c(-c2nonc2N)nc2cncc(Br)c21 [SB-738004]
OUTPUT: 6

INPUT: Indicate its recorded %Inh; the molecule in question is COC(=O)Nc1nc2cc(Oc3ccc(NC(=O)Nc4cc(C(F)(F)F)ccc4Cl)cc3)ccc2[nH]1.Cl [GW697465]
OUTPUT: 0

INPUT: Indicate its recorded %Inh; the molecule in question is C[C@@H]1CCN(C(=O)N2CCCC2)C[C@@H]1N(C)c1ncnc2[nH]ccc12
OUTPUT: 0

INPUT: Indicate its recorded %Inh; the molecule in question is Cc1cccc2c(-c3ccncc3)c(-c3ccc(F)cc3)nn12.Cl [GW461487]
OUTPUT: 0

INPUT: Indicate its recorded %Inh; the molecule in question is Cc1cccc(-c2nc(Nc3ccncc3)c3sccc3n2)n1 [GW869641]
OUTPUT: 0

INPUT: Indicate its recorded %Inh; the molecule in question is COc1cccc(CNC(=O)NC2CCN(c3ccnc(Nc4cc(OC)c(OC)c(OC)c4)n3)C2)c1 (stereo not shown) [GSK1379765]
OUTPUT: 0

INPUT: Indicate its recorded %Inh; the molecule in question is COC(=O)c1cccc(NC(=O)NC2CCN(c3ccnc(Nc4cc(OC)c(OC)c(OC)c4)n3)C2)c1 (stereo not shown) [GSK1379767]
OUTPUT: 0

INPUT: Indicate its recorded %Inh; the molecule in question is O=C(NCC1CC1)c1ccc(-c2cc(C(=O)NC3CC3)ccc2F)cc1 [GW810445]
OUTPUT: 1

INPUT: Indicate its recorded %Inh; the molecule in question is COc1cc2c(Nc3ccc(NC(=O)c4ccccc4)cc3)ncnc2cc1OCCCN1CCOCC1 [GSK301329]
OUTPUT: 0

INPUT: Indicate its recorded %Inh; the molecule in question is COc1cc2nccc(Nc3ccc(Oc4ccccc4)cc3)c2cc1OC.Cl [GI261656]
OUTPUT: 0

INPUT: Indicate its recorded %Inh; the molecule in question is CC(C)c1nc(-c2cccc(NS(=O)(=O)c3ccccc3)c2)c(-c2ccnc(Nc3ccc4c(c3)CN(C)CC4)n2)s1 [GSK1649598]
OUTPUT: 11

INPUT: Indicate its recorded %Inh; the molecule in question is CN(c1ccccc1CNc1nc(Nc2ccc3c(c2)CC(=O)N3)ncc1C(F)(F)F)S(C)(=O)=O
OUTPUT: 24

INPUT: Indicate its recorded %Inh; the molecule in question is Cl.c1ccc(Oc2ccc(Nc3ccnc4cc(-c5ccc(CN6CCNCC6)o5)ccc34)cc2)nc1 [GW567142]
OUTPUT: 0

INPUT: Indicate its recorded %Inh; the molecule in question is O=C(Nc1n[nH]c2cc(-c3ccco3)ccc12)C1CC1 [SB-737447]
OUTPUT: 0

INPUT: Indicate its recorded %Inh; the molecule in question is OCCn1cc(-c2cnc3nnn(Cc4ccc5ncccc5c4)c3n2)cn1
OUTPUT: 3

INPUT: Indicate its recorded %Inh; the molecule in question is Nc1nccc(-c2ccc3c(N)n[nH]c3c2)n1 [GSK1034945]
OUTPUT: 0

INPUT: Indicate its recorded %Inh; the molecule in question is CCCC(=O)Nc1n[nH]c2ncccc12 [SB-601436]
OUTPUT: 0

INPUT: Indicate its recorded %Inh; the molecule in question is CN1CCN(CCCNc2nccc(-c3c(-c4ccc(F)cc4)nn4cc(C(N)=O)ccc34)n2)CC1 [GW622475]
OUTPUT: 0

INPUT: Indicate its recorded %Inh; the molecule in question is O=C(NOCC1CC1)c1cc(Br)c(F)c(F)c1Nc1ccc(I)cc1Cl
OUTPUT: 0

INPUT: Indicate its recorded %Inh; the molecule in question is O=c1[nH]cc(-c2ccc(O)cc2)c2sc(-c3ccncc3)cc12 [GSK1033723]
OUTPUT: 0

* * *

Test system: PIM3
Condition Parameters: concentration: 1 μM,replicates: in singlicate; n = 1
Kindly state %Inh for each of the entries shown.
Give just the numeric value; % need not be written.

INPUT: Jot down %Inh (PIM3) of Cc1nnc(-c2ccc3occ(-c4ccc(S(C)=O)cc4)c3n2)o1 (centres unmarked) .
OUTPUT: 4

INPUT: Jot down %Inh (PIM3) of Cc1n[nH]c2cc(Nc3ccnc(Nc4cccc(CN5CCOCC5)c4)n3)ccc12 .
OUTPUT: 0

INPUT: Jot down %Inh (PIM3) of Cc1ccc(CC(=O)N2CCc3cc(-c4cn(C)c5ncnc(N)c45)ccc32)cc1 .
OUTPUT: 0

INPUT: Jot down %Inh (PIM3) of CCn1c(-c2nonc2N)nc2cncc(Br)c21 .
OUTPUT: 62

INPUT: Jot down %Inh (PIM3) of COc1cccc(C2=C(Nc3cccc(Cl)c3)C(=O)NC2=O)c1 .
OUTPUT: 0

INPUT: Jot down %Inh (PIM3) of CS(=O)(=O)c1cccc(CNc2nc(Nc3ccc4c(c3)[C@@H]3C[C@@H]4CNC3=O)ncc2C(F)(F)F)c1 .
OUTPUT: 0

INPUT: Jot down %Inh (PIM3) of COC(=O)c1cccc(NC(=O)NC2CCN(c3ccnc(Nc4cc(OC)c(OC)c(OC)c4)n3)C2)c1 (centres unmarked) .
OUTPUT: 0

INPUT: Jot down %Inh (PIM3) of CC(C)S(=O)(=O)N1CCN(Cc2ccc3c(c2)nc(NC(=O)c2ccsc2)n3C[C@H](O)c2ccccc2)CC1 .
OUTPUT: 7

* * *

System: MINK
Construct: gene MINK1
Condition Parameters: concentration: 1 μM,replicates: in singlicate; n = 1
Property Name: %Inh (%)
Give just the numeric value; % need not be written.

INPUT: Indicate its recorded %Inh; the compound in question is CCN1CCN(CCCC(=O)Nc2n[nH]c3nc(-c4ccc(O)cc4)c(Br)cc23)CC1
OUTPUT: 0

INPUT: Indicate its recorded %Inh; the compound in question is COC(=O)Nc1nc2cc(Oc3ccc(NC(=O)Nc4cc(C(F)(F)F)ccc4Cl)cc3)ccc2[nH]1.Cl
OUTPUT: 0

INPUT: Indicate its recorded %Inh; the compound in question is CN(c1cccc(CNc2nc(Nc3ccc4c(c3)CC(=O)N4)ncc2C(F)(F)F)c1)S(C)(=O)=O
OUTPUT: 76

INPUT: Indicate its recorded %Inh; the compound in question is N#Cc1cccc(C(=O)NC2CCN(c3ccnc(Nc4ccc(F)cc4)n3)C2)c1 (centres unmarked)
OUTPUT: 0

INPUT: Indicate its recorded %Inh; the compound in question is O=C(Nc1cccc(Oc2ccc3nccn3n2)c1)Nc1cccc(C(F)(F)F)c1
OUTPUT: 27

* * *

Kindly state %Inh for each of the entries shown.
Test system: ERK5
Construct: gene MAPK7
Condition Parameters: concentration: 1 μM,replicates: in singlicate; n = 1
Give just the numeric value; % need not be written.

INPUT: Indicate its recorded %Inh; the compound in question is Cc1ccc(C(=O)Nc2ccc(Oc3ccc4nc(NC(=O)C5CC5)cn4c3)c(F)c2)c(=O)n1-c1ccccc1
OUTPUT: 0

INPUT: Indicate its recorded %Inh; the compound in question is CS(=O)c1ccc(-c2coc3ccc(-c4n[nH]c(=O)o4)cc23)cc1 (centres unmarked)
OUTPUT: 0

INPUT: Indicate its recorded %Inh; the compound in question is C[C@@H](Oc1cc(-n2cnc3ccc(-c4ccncc4)cc32)sc1C(N)=O)c1ccccc1Cl
OUTPUT: 0

INPUT: Indicate its recorded %Inh; the compound in question is COc1cccc(OC)c1C(=O)Nc1cccc(-c2nn3ccccc3c2-c2ccnc(Nc3cccc(F)c3)n2)c1
OUTPUT: 2

INPUT: Indicate its recorded %Inh; the compound in question is Cn1ccc2ncnc(Oc3ccc(NC(=O)Nc4cnn(C(C)(C)C)c4)c(Cl)c3)c21
OUTPUT: 7

INPUT: Indicate its recorded %Inh; the compound in question is Cl.Nc1n[nH]c2cc(-c3ccccn3)ccc12
OUTPUT: 0

INPUT: Indicate its recorded %Inh; the compound in question is C[C@@H](Oc1cc(-n2cnc3cc(-c4cnn(C)c4)ccc32)sc1C(N)=O)c1ccccc1Cl
OUTPUT: 0

INPUT: Indicate its recorded %Inh; the compound in question is COc1cccc(C2=C(Nc3cccc(Cl)c3)C(=O)NC2=O)c1
OUTPUT: 0
